- target-system: human GPC3 on cells (human, UniProt P51654 25-554)
- assay-name: cell-based or functional assay
attribute-measured: EC50 of ADCC signaling (Jurkat-hCD16a-NFAT luciferase reporter), HEPG2 cells (nM)

binder	units-of-measure	reported
52H5D3B8-6#-VH1+VL1 (antibody, V domains shown, humanized) VH: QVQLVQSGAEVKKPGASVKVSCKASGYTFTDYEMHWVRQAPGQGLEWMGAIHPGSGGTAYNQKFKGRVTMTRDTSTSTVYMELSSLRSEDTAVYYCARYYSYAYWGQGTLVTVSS VL: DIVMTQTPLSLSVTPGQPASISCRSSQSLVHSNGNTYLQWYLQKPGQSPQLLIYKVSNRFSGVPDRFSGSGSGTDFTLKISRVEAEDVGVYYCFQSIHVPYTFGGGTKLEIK	nM	0.176
52H5D3B8-18#-VH2+VL3 (antibody, V domains shown) VH: QVQLVQSGAEVKKPGASVKVSCKASGYTFTRYEMHWVRQAPGQGLEWIGAIHPGSGGTAYNSKFKGRVTMTADTSTSTVYMELSSLRSEDTAVYYCTRYYSYAYWGQGTLVTVSS VL: DIVMTQTPLSLSVTPGQPASISCRSSQSLVHSNGNTYLQWYLQKPGQSPKLLIYKVSNRYSGVPDRFSGSGSGTDFTLKISRVEAEDVGVYYCVESIHVPYTFGGGTKLEIK	nM	0.202
52H5D3B8-19#-VH2+VL3 (antibody, V domains shown) VH: QVQLVQSGAEVKKPGASVKVSCKASGYTFTGYEMHWVRQAPGQGLEWIGAIHPGSGGTAYNQKFKGRVTMTADTSTSTVYMELSSLRSEDTAVYYCTRYYSYAYWGQGTLVTVSS VL: DIVMTQTPLSLSVTPGQPASISCRSSQSLVHSNGNTYLQWYLQKPGQSPKLLIYKVSNRFAGVPDRFSGSGSGTDFTLKISRVEAEDVGVYYCVESIHVPYTFGGGTKLEIK	nM	0.0844
52H5D3B8-6#-VH2+VL3 (antibody, V domains shown, humanized) VH: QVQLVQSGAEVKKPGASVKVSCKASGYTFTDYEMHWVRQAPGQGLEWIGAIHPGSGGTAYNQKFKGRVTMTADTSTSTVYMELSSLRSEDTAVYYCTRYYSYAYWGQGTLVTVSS VL: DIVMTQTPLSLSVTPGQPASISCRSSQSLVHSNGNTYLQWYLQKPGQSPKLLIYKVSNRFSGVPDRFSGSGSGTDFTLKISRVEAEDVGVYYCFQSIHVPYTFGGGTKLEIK	nM	0.174
